Values were extracted from ChEMBL document CHEMBL1201862.

Target: Nonstructural protein 1 (Influenza A virus)
Sequence (Q194T2 whole entry): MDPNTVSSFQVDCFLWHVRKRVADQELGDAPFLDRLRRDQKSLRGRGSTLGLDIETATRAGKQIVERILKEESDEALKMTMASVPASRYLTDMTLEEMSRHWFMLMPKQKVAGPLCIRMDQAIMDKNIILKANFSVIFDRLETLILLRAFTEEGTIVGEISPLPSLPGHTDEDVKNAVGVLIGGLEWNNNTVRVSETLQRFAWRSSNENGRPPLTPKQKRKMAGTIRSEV
Format: functional, Influenza A virus (A/California/07/2009(H1N1))
The source made the active and inactive calls.
quantity.measured: IC50

Cc1c(Cl)cccc1NS(=O)(=O)c1ccc2c(c1)C1C=CCC1C(c1ccc(C(=O)O)cc1)N2 (stereo not given); 82.4 µM (active)
COc1ccc(N=Nc2cnc(C)nc2-c2ccccc2)cc1; 43.8 µM (active)
C[C@@H](C(=O)Nc1nc(-c2ccccn2)cs1)N1C(=O)C2CCCCC2C1=O (stereo not given in full); 8.38 µM (active)
CCc1ccc(Nc2c([N+](=O)[O-])nn(-c3ccccc3)[n+]2[O-])cc1; 81.8 µM (active)

Query: IC50; subject: `COc1ccc(N2CCN(CCCN)CC2)cc1` 39.8 µM (active)

====

Assay: Luminescence Cell-Based Dose Retest to Confirm Inhibitors of Cancer Stem Cells. [Related pubchem assays (depositor defined):AID2717, AID2721]
Type: functional
Conditions: Homo sapiens
The source made the active and inactive calls.
AC50 listing for selected molecules.

Cc1ccc(NC(=S)N/N=C/c2c(Cl)cccc2Cl)c(C)c1; 0.368 µM (active)
O=C(Nc1ccc([N+](=O)[O-])cc1)Nc1ccc(OC(F)F)c(Cl)c1; 1.22 µM (active)
O=C1c2ccccc2C(=O)N1CC#CCN1CCN(C(c2ccccc2)c2ccccc2)CC1; 2.06 µM (active)

Query: AC50; subject: `Cc1cccc2sc(NC(=O)C3c4ccccc4Oc4ccccc43)nc12` 2.83 µM (active)

====

Assay: Luminescence Cell-Based Dose Response HTS to Identify Inhibitors of 5'UTR Stem-Loop Driven Prion Protein mRNA Translation in H4 Neuroglioblastoma Cells. [Related pubchem assays: 1827 (Project Summary), 1813 (Primary HTS)]
Type: functional
Activity calls are given as the source filed them.
quantity.measured: EC50

O=S(=O)(c1cccs1)N1CCN(c2ccnc3cc(Cl)ccc23)CC1; 13.1 µM (active)
COc1ccc(C(=O)NCCC2=CCCCC2)cc1; 8.58 µM (active)
CC(=O)Nc1ncnc2c1c(-c1ccc(Cl)cc1)nn2C(C)(C)C; 13.3 µM (active)

Okay, now this compound:
Query: EC50; subject: `O=C(CN1CCN(S(=O)(=O)c2ccc3ccccc3c2)CC1)NC(=O)NC1CCCCC1` > 120 µM (not active)

====

IC50 listing for selected molecules.
Target: SUMO-activating enzyme (Homo sapiens, UniProt Q9UBT2)
Sequence (Q9UBE0 whole entry): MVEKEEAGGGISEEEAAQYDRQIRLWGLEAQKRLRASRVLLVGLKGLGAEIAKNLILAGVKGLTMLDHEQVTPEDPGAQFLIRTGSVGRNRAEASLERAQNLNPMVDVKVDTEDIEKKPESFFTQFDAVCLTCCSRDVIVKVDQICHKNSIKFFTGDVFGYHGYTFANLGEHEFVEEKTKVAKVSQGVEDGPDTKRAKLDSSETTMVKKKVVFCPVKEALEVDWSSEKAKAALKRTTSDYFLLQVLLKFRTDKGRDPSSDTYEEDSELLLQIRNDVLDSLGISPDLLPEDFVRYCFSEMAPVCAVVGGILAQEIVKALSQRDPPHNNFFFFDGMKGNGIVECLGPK
Sequence (Q9UBT2 whole entry): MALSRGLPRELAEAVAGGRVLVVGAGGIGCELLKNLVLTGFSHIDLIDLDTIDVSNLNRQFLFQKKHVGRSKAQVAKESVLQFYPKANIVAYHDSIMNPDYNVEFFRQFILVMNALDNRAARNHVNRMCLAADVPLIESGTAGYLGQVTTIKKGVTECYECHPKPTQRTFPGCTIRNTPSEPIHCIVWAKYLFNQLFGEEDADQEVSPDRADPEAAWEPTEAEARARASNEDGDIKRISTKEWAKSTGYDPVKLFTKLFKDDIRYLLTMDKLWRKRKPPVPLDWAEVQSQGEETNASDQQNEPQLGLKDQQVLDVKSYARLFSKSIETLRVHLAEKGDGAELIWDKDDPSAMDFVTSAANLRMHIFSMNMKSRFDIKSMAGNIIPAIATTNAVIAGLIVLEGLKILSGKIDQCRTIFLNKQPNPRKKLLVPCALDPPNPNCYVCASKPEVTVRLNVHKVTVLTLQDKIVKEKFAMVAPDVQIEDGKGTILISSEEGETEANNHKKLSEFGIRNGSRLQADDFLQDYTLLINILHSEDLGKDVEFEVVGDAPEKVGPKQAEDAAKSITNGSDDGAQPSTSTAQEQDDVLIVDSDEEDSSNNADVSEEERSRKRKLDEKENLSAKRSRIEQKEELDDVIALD
Assay: blockers of UBC9-mediated SUMO conjugation – biochemical, AlphaScreen, SUMOylation inhibitor project, confirmation (AID 2018)
Assay type: functional
Calls of active or inactive are those of the source.

N#Cc1c(-c2cccs2)nc(SCc2ccc(Cl)cc2)[nH]c1=O; 9.93 µM (active)
N#Cc1c(-c2ccc(Cl)cc2)cc(-c2cccs2)nc1SCC(=O)O; 8.73 µM (active)
CC(=O)N(C1=C(Cl)C(=O)c2ccccc2C1=O)c1ccc(C(=O)O)cc1; 3.77 µM (active)

Query: IC50; subject: `Cc1ccc(NC(=O)CN2C(=O)N/C(=C/c3cccn3-c3ccc(C(=O)O)cc3)C2=O)cc1` 1.09 µM (active)

====

Molecular target: Nonstructural protein 1 (Influenza A virus)
Assay type: functional, Influenza A virus (A/California/07/2009(H1N1))
Active and inactive are the calls of the source.
quantity.measured: IC50

O=C(O)CN(CC(=O)O)CC(=O)O; 17.7 µM (active)
O=C(N/N=C/c1cc(Cl)cc(Cl)c1O)c1ccncc1; 5.57 µM (active)
Oc1ccc(/C=N/N(c2ccccc2)c2ccccc2)c(O)c1O; 47.6 µM (active)

Query: IC50; subject: `CCCOc1ccc(/C=N/Nc2ccccc2[N+](=O)[O-])c(OCCC)c1` 7.73 µM (active)

Query: IC50; subject: Oc1c(C(Nc2ccccn2)c2ccccn2)ccc2cccnc12 (stereo unspecified) 8.2 µM (active)

Query: IC50; subject: `Oc1cc(Nc2cccnc2)cc2cccnc12` 8.89 µM (active)

====

EC50 listing for selected molecules.
Assay: viability of HCT116 lacking mutant beta-catenin – cell-based, human colon tumor, dose response (AID 1045);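 note: HCT116 colon tumor cells with beta catenin knocked out; cells exposed to compound for 60 hours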
Assay type: functional
Active and inactive are the calls of the source.

COc1ccc(C(C(=O)NC2CCCCC2)N(C(=O)CCl)c2ccc(OC)cc2)cc1 (stereo not given); 0.721 µM (active)

Query: EC50; subject: `Cc1ccc2nc(-c3ccc(NC(=O)COC(=O)c4ccc(Br)o4)cc3)sc2c1` 79.7 µM (active)

Query: EC50; subject: CC(C)(C)NS(=O)(=O)c1ccc(NC(=O)C(Sc2ccccc2)c2ccccc2)cc1 (stereo not given) 14.7 µM (active)

Query: EC50; subject: `O=C(/C=C\c1cn(-c2ccccc2)nc1-c1ccccc1)Nc1nccs1` 7.96 µM (active)

Query: EC50; subject: `COc1ccc(C(=O)c2c(C(F)(F)F)oc3c2C(=O)c2ccccc2C3=O)cc1OC` 2.23 µM (active)

====

Molecular target: Fatty acid synthase (Homo sapiens)
Sequence (P49327 whole entry): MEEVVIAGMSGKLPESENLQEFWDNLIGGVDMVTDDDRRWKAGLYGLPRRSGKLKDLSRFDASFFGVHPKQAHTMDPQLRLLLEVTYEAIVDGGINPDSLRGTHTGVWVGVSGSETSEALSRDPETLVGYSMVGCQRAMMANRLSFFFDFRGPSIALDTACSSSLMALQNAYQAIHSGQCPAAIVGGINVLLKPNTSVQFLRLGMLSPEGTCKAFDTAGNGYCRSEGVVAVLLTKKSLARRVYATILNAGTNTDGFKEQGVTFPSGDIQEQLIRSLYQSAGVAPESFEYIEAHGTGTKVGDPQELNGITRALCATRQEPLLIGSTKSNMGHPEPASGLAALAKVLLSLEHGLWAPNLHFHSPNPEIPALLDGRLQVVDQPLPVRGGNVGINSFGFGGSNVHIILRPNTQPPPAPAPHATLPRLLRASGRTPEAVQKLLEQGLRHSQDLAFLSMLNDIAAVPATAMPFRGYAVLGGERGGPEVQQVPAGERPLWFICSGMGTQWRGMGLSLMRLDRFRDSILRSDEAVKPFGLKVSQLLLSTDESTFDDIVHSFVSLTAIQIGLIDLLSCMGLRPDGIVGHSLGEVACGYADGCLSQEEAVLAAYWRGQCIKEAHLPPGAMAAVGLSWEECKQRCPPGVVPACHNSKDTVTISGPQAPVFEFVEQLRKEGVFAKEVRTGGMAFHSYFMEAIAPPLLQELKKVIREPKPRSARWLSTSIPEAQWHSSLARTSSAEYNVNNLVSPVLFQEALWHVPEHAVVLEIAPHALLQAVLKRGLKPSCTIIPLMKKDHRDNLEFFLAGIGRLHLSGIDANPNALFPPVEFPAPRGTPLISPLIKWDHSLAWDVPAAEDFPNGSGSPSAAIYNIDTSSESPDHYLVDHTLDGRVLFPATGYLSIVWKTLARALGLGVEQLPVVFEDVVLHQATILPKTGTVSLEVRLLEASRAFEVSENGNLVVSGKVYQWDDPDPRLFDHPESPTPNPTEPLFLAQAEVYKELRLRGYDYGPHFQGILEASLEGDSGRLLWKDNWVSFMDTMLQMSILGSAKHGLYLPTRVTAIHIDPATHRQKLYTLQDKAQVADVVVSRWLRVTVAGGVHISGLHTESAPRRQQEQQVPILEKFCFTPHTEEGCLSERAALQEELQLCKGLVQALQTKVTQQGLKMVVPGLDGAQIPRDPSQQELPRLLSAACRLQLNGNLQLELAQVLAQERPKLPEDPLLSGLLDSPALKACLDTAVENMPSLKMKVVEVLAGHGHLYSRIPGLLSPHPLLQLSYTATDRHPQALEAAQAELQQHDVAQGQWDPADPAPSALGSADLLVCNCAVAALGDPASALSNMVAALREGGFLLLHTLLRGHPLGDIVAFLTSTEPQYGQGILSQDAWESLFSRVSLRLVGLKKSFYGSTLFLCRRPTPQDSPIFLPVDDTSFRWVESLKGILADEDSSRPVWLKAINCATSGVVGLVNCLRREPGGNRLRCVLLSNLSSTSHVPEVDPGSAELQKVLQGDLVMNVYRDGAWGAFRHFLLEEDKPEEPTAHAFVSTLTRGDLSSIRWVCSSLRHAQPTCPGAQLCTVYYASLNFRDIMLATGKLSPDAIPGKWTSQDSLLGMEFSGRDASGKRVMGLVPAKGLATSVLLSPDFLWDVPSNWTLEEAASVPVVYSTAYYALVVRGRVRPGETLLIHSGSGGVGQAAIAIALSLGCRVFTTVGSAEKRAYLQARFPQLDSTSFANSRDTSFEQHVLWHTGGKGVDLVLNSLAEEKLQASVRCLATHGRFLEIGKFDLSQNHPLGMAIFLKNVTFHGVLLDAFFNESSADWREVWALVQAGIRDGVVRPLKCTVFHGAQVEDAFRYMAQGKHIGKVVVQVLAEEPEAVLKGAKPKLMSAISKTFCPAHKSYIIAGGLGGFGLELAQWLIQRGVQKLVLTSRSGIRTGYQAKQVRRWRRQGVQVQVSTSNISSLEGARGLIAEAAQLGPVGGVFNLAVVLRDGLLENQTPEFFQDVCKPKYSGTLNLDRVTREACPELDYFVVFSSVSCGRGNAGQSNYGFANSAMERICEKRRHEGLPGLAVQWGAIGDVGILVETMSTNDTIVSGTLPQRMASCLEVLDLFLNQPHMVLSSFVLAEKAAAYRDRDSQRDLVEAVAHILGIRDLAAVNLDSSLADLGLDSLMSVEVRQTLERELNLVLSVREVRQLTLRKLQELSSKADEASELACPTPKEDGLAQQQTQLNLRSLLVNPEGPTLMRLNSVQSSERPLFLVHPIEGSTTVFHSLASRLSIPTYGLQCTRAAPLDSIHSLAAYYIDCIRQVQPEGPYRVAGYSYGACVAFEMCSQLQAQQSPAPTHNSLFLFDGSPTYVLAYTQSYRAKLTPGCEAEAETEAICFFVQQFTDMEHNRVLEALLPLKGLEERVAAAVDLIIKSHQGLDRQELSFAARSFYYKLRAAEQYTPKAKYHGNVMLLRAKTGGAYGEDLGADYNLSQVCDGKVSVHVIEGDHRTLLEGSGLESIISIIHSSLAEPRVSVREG
Experiment: inhibition of human FAS-TE enzyme activity – biochemical, kinetic fluorescence intensity, dose response (AID 624326);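 note: rate of fluorescence rise from hydrolysis of a fluorogenic O-methyl fluorescein ester substrate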
Assay type: functional
Calls of active or inactive are those of the source.
quantity.measured: IC50

// solved cases for IC50 follow
COc1ccc2cc3cc(C(=O)N4CC(C)CC(C)C4)oc3nc2c1 (stereo not drawn); 3.88 µM (active)
COCCOc1ccc(C(F)(F)F)cc1NC(=O)Cc1ccc(S(=O)(=O)N2CCOCC2)s1; 8.23 µM (active)
O=[N+]([O-])c1cccc(OCCN2CCC(Cc3ccccc3)CC2)c1; 4.72 µM (active)
O=C(NCCc1ccccc1)/C(=C\c1cccc([N+](=O)[O-])c1)NC(=O)c1ccco1; 4.22 µM (active)
N#Cc1c(-c2cccs2)nc(SCc2ccc(Cl)cc2)[nH]c1=O; 5.61 µM (active)
CC(OC(=O)c1ccc(Cl)c([N+](=O)[O-])c1)C(=O)N1CCN(Cc2ccccc2)CC1 (stereo not drawn); 3.36 µM (active)

Query: IC50; subject: `COc1ccc(/C=C(\NC(=O)c2ccc([N+](=O)[O-])cc2)C(=O)NCCN2CCOCC2)cc1` 5.27 µM (active)

Query: IC50; subject: `O=C1/C(=C/c2ccccc2Cl)SC(=S)N1CCCC(=O)N(CCO)c1ccccc1` 9.91 µM (active)

====

Target: Paired box protein Pax-8 (Homo sapiens, UniProt Q06710)
Sequence (Q06710 whole entry): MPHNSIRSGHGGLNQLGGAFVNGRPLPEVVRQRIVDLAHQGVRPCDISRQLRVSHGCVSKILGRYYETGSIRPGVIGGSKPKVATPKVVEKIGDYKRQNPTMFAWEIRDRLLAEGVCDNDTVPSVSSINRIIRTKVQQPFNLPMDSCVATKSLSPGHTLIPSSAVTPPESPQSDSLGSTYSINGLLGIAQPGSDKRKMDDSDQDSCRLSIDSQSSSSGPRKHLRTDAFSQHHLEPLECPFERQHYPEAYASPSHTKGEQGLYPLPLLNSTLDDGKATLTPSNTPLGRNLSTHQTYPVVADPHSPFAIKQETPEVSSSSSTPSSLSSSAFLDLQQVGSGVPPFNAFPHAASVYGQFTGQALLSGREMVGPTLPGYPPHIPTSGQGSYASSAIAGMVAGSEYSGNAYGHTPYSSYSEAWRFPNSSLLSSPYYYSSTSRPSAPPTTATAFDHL
Test: PAX8 transcriptional activity inhibition in RMG-I – RMG-I cells, luciferase, cherry-pick, dose response (AID 687027);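 note: luciferase reporter driven by Pax8 target thyroperoxidase promoter measured by SteadyGlo luminescence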
Type: functional, cell-based
The source made the active and inactive calls.
quantity.measured: AC50

Cc1ccc(S(=O)(=O)N(C)C[C@H]2OCCCC[C@H](C)Oc3ccc(NS(=O)(=O)c4ccc(Cl)cc4)cc3C(=O)N([C@H](C)CO)C[C@@H]2C)cc1; 4.09 µM (active)
C[C@@H]1CCCCO[C@@H](CN(C)Cc2ccc(C(F)(F)F)cc2)[C@H](C)CN([C@@H](C)CO)C(=O)c2cc(NC(=O)Nc3ccc(F)cc3)ccc2O1; 3.37 µM (active)
COC1=C(C)C(=O)C2=C(C1=O)C(CO)N1C(C#N)C3CC4C(C1C2N1CCOC41)N3C (configuration not stated); < 0.26 µM (active)
C[C@@H]1CCCCO[C@H](CN(C)CC2CCCCC2)[C@H](C)CN([C@@H](C)CO)C(=O)c2cc(NS(=O)(=O)c3ccc(Cl)cc3)ccc2O1; 6.43 µM (active)
CS(=O)(=O)c1ccc(C(=O)OCC(=O)NCc2cccs2)cc1[N+](=O)[O-]; 14 µM (active)

Missing value: AC50, Paired box protein Pax-8 (Homo sapiens, UniProt Q06710), entry `C[C@H](CO)N1C[C@H](C)[C@H](CN(C)Cc2ccc3c(c2)OCO3)OCCCC[C@H](C)Oc2ccc(NS(=O)(=O)c3ccc(Cl)cc3)cc2C1=O` . Fill in? 9.86 µM (active)

Missing value: AC50, Paired box protein Pax-8 (Homo sapiens, UniProt Q06710), entry `Cc1cccc(-c2ccc([C@H]3[C@@H](CO)N4CCCCN(S(=O)(=O)c5cccc(C)c5)C[C@@H]34)cc2)c1` . Fill in? 8.23 µM (active)

====

Biological target: FAD-linked sulfhydryl oxidase ALR (Homo sapiens)
Sequence (P55789 whole entry): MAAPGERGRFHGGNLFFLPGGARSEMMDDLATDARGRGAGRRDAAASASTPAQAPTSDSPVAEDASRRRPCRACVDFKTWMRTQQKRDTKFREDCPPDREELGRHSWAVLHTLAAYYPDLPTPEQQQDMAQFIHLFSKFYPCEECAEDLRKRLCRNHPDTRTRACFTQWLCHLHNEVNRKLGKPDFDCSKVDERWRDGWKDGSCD
Test: ALR-catalysed DTT oxidation blockers – biochemical, H2O2 detection, luminescence, cherry-pick, dose response (AID 493248)
Activity calls are given as the source filed them.
quantity.measured: AC50

COc1cc(/C=C2/C(=O)NN(c3ccc(Cl)c(Cl)c3)C2=O)cc([N+](=O)[O-])c1O; 409 nM (active)

Okay, now this molecule:
Query: AC50; subject: CC1=NN(c2ccccc2)C(=O)C1/C=C1/C(=O)NC(=O)N(c2cc(C)cc(C)c2)C1=O (configuration not stated) 1760 nM (active)

====

AC50 listing for selected molecules.
Molecular target: Microphthalmia-associated transcription factor (Homo sapiens)
Sequence (O75030 whole entry): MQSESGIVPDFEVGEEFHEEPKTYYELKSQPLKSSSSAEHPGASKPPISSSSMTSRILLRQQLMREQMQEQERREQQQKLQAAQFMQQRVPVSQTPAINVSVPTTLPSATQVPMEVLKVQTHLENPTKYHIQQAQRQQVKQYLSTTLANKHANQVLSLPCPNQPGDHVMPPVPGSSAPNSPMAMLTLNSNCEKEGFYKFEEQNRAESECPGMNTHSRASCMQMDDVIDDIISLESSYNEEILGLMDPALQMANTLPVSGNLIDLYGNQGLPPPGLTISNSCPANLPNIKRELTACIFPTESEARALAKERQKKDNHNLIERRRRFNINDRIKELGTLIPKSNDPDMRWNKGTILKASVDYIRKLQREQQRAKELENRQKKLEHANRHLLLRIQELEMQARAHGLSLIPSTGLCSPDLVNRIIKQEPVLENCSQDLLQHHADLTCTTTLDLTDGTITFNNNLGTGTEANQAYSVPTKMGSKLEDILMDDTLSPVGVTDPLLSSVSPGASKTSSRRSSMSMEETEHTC
Experiment: reducers of TRPM1 reporter luminescence, concentration series – cell-based, SK-MEL-5, cherry-picked, set 3, MITF inhibitor project, dose response (AID 493073);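 note: SK-MEL-5 melanoma cells with luciferase driven by the MITF target TRPM1 promoter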
Assay type: functional
Active and inactive are the calls of the source.

CC(C)(C)c1ccc(C(=O)Nc2ccc(CC(=O)O)cc2)o1; 0.329 µM (active)
COc1ccc2nc(C)cc(NCc3cccc(C(F)(F)F)c3)c2c1; 18.2 µM (active)
CCN1CCN(c2ccc(S(=O)(=O)N3CCOCC3)cc2NC(=O)/C=C/c2ccc([N+](=O)[O-])cc2)CC1; 8.13 µM (active)
CS(=O)(=O)c1ccc(C(=O)OCC(=O)NCc2cccs2)cc1[N+](=O)[O-]; 11.7 µM (active)

Query: AC50; subject: COc1ccc(C(C(=O)NC2CCCCC2)N(C(=O)CCl)c2ccc(OC)cc2)cc1 (stereo not given) 9.27 µM (active)
